Quick list: efficacy of cysteine peptide change per entry.
- Test system: cysteine peptide Ac-RFAACAA-COOH
- test-details: efficacy of cysteine peptide change (negative = depletion) (% activity); higher = less depletion
- condition: incubation time: 24 h
Write the value as a bare number.

Some entries whose results are on file:
• Cc1ccc2c(c1N)C(=O)c1ccccc1C2=O = -101
• c1coc(-c2nc3ccccc3[nH]2)c1 = -100

Then there is this compound:
QUERY: What does the data say about its efficacy of cysteine peptide change? Entry: CC(O)C#CC(C)O (stereo not drawn)
RESULT: -101

###

- System: lysine peptide Ac-RFAAKAA-COOH
- test-details: efficacy of lysine peptide change (negative = depletion) (% activity); higher = less depletion
- condition: incubation time: 24 h
Reported efficacy of lysine peptide change values are given for each entry in this list.
Answer field: number only, no words.

QUERY: Quick one: efficacy of lysine peptide change of `ClC1=C(Cl)C(Cl)(Cl)C(Cl)=C1Cl` ?
RESULT: -11.3

QUERY: What does the record list as efficacy of lysine peptide change for `Cc1occc1S` ?
RESULT: -108

QUERY: Returns the measured efficacy of lysine peptide change for the input compound. Input: `CCS(=O)(=O)CCSP(=O)(OC)OC`
RESULT: -8

QUERY: Reported efficacy of lysine peptide change, compound `O=[N+]([O-])c1c(Cl)c(Cl)c(Cl)c(Cl)c1Cl` : ____
RESULT: 5.1

QUERY: Could you share which efficacy of lysine peptide change value was measured for C=CC(C)(CCC=C(C)C)OC(=O)CC(C)C (stereo not given) [Linalyl isovalerate] ?
RESULT: 2.12

QUERY: Reported efficacy of lysine peptide change for `CCc1cccc(CC)c1N(COC)C(=O)CCl` : what is it?
RESULT: 64.4

QUERY: Requested field: efficacy of lysine peptide change. Item: CC/C=C\C/C=C\C/C=C\CCCCCCCC(=O)OCC [Ethyl linolenate]
RESULT: -51.8

QUERY: Would you kindly share the measured efficacy of lysine peptide change for `CCC(C)(c1ccc(O)cc1)c1ccc(O)cc1` ?
RESULT: 31.9

QUERY: Need efficacy of lysine peptide change of `COP(=S)(OC)Oc1nc(Cl)c(Cl)cc1Cl` , thanks.
RESULT: 32.7

QUERY: Which measured efficacy of lysine peptide change value corresponds to CC1=C(/C=C/C(C)=C\C=C\C(C)=C\C(=O)O)C(C)(C)CCC1 [9-cis Retinoic acid] ?
RESULT: -19.7

QUERY: Using the record for `COc1cc(C(C)(C)C)c(O)c(C(C)(C)C)c1` , report its efficacy of lysine peptide change.
RESULT: 3.75

QUERY: Dear colleague, I am looking for the recorded efficacy of lysine peptide change of the following compound: `O=C(CCl)c1ccccc1`
RESULT: 9.03

QUERY: Entry `c1ccc(-c2cccc(-c3ccccc3)c2)cc1` : reported efficacy of lysine peptide change = ?
RESULT: 7.59

QUERY: If you can, please state the reported efficacy of lysine peptide change value of `c1coc(-c2nc3ccccc3[nH]2)c1` .
RESULT: -20.8

QUERY: So what does the record say about efficacy of lysine peptide change for CCC(C)(NC(=O)c1cc(Cl)c(C)c(Cl)c1)C(=O)CCl (stereo not given) [Zoxamide] ?
RESULT: 19.4

###

- Test system: KeratinoSens (HaCaT ARE-luciferase) cells
- test-details: AC50 of Nrf2/ARE luciferase induction; higher = less potent
- condition: exposure time: 24 h
Just a reminder that ties go to Condition not met: only AC50 of Nrf2/ARE luciferase induction strictly below 20 µM counts as Condition met.

QUERY: A record lists C=CC(=O)OCC(COC(=O)C=C)(COC(=O)C=C)COC(=O)C=C [Pentaerythritol tetraacrylate] . Is its AC50 of Nrf2/ARE luciferase induction below 20 µM?
RESULT: Condition met

QUERY: Is the reported AC50 of Nrf2/ARE luciferase induction for C/C=C/C=C/CCCCCCCO [Codlelure] strictly below 20 µM?
RESULT: Condition not met

QUERY: Please indicate whether the reported AC50 of Nrf2/ARE luciferase induction of CN(C)c1ccc(N(C)C)cc1 [*N,N,N',N'-Tetramethyl-p-phenylenediamine] is strictly below 20 µM.
RESULT: Condition not met

QUERY: Input C=CC(=O)OCCOC(=O)CCC(=O)O [4-[2-(Acryloyloxy)ethoxy]-4-oxobutanoic acid] ; condition: AC50 of Nrf2/ARE luciferase induction strictly below 20 µM. Does it hold?
RESULT: Condition not met
